PROTOCOL_DESCRIPTION: CCTE_Shafer_MEA_acute_burst_percentage_mean: CCTE's Neural Acute Assay for Percentage of Spikes in a Burst, Shafer Lab (AID 2284017)
The source made the active and inactive calls. How the source made its calls: active means hit-call score of the fitted dose curve at least 0.9, where 1 is the maximum; inactive means score below 0.9.
Classes used: active, inactive

> print(dat)
                              smiles.string  group.label
1  CO/N=C(/C1=NOCCO1)c1ccccc1Oc1ncnc(Oc2ccccc2Cl)c1F       active
2  C=C(C)CN(CC)c1c([N+](=O)[O-])cc(C(F)(F)F)cc1[N+](=O)[O-]     inactive
3        Cn1c(-c2ccccc2)cc(-c2ccccc2)[n+]1C       active

src = PubChem BioAssay (EPA / NIEHS)
